Would you kindly list z-score for each of these molecules?
- Protocol Summary: inhibitors of hydroxyurea-induced Chk1 phosphorylation, primary screen, imaging, HeLa, phospho-Chk1 nuclear intensity (AID 1187); further: test concentration not given here
- Condition Details: hydroxyurea-induced phospho-Chk1 immunofluorescence imaging, higher = more signal
The source made the active and inactive calls. How the calls were made is not given here.

Incoming: Recall and state the measured z-score for C=C[C@@H](COC(C)=O)N(Cc1ccc([N+](=O)[O-])cc1)S(=O)(=O)c1ccc(Br)cc1 .
Outgoing: -0.411 (inactive)

Incoming: Recall and state the measured z-score for N[C@@H](Cc1ccccc1)Cn1cc(-c2ccccc2)nn1 .
Outgoing: 0.117 (inactive)

Incoming: Recall and state the measured z-score for COc1ccc(C#Cc2ccc3c(c2)[C@]2(C(=O)N3)[C@H](c3ccc(O)cc3)N3[C@H](c4ccccc4)[C@H](c4ccccc4)OC(=O)[C@H]3[C@@H]2C(=O)N2CCCCCCC2)cc1 .
Outgoing: -0.0916 (inactive)

Incoming: Recall and state the measured z-score for COC(=O)C[C@@H]1C[C@H](C)[C@]2(O1)C(=O)N(Cc1ccccc1)c1ccc(NC(C)=O)cc12 .
Outgoing: -0.194 (inactive)
